System Under Test: ATP-dependent translocase ABCB1 (Homo sapiens, UniProt P08183)
Sequence (P08183 whole entry): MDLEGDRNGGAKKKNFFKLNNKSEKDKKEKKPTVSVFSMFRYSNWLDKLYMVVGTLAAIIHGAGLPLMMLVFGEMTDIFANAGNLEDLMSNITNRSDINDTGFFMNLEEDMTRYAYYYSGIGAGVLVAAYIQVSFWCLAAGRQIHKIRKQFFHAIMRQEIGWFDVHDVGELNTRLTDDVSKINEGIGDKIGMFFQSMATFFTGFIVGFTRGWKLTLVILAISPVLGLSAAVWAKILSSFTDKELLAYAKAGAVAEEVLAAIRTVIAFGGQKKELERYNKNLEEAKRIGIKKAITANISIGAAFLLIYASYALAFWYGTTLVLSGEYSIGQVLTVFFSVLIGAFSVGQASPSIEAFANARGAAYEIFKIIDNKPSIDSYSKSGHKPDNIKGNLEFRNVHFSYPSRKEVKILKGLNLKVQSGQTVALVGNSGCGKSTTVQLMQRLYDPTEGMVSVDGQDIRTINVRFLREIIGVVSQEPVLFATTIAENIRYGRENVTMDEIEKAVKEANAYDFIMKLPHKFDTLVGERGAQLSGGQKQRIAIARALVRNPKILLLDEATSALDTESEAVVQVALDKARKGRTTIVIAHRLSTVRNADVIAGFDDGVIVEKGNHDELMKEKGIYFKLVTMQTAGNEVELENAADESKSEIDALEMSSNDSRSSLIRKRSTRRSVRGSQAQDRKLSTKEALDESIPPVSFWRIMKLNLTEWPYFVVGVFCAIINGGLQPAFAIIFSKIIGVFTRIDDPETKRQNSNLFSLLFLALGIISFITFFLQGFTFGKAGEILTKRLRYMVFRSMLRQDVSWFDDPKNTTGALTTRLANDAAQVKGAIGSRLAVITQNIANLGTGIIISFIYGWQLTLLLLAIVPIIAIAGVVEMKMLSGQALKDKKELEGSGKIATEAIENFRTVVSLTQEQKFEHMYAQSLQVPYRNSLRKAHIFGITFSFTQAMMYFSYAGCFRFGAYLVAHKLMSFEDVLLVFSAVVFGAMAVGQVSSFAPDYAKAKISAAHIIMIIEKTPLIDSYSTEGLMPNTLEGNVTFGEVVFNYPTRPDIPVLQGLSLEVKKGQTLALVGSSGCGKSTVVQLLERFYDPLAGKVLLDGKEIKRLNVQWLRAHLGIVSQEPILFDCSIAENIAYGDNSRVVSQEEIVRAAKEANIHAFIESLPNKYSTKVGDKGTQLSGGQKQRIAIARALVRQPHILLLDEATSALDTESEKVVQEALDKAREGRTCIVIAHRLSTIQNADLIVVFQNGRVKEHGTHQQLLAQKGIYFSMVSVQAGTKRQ
Assay Name: Evaluated for inhibition of growth of CEM/VLB1000 cell line using multidrug resistance (MDR) potentiation assay
Experimental Setup: read-out: ED50
Measurement Name: GI50 (nM)
Give your result in nM as a bare value.

Some compounds with known GI50 results, for comparison:
> print(dat)
                  compound.structure.string  measurement.name  readout.value
1  CCCCCCn1c(-c2ccc(C(=O)O)cc2)nc(-c2ccc(N(C)C)cc2)c1-c1ccc(N(C)C)cc1              GI50           2000
2  COC/C=C/c1ccc(-c2nc(-c3ccc(N(C)C)cc3)c(-c3ccc(N(C)C)cc3)[nH]2)cc1              GI50            130
3  CN(C)c1ccc(-c2nc(-c3ccc(/C=C/C(=O)O)cc3)n(CCc3ccccc3)c2-c2ccc(N(C)C)cc2)cc1              GI50          20000
4  COC(=O)/C=C/c1ccc(-c2nc(-c3ccc(N(C)C)cc3)c(-c3ccc(N(C)C)cc3)[nH]2)cc1              GI50            300

Tested system ATP-dependent translocase ABCB1 (Homo sapiens, UniProt P08183); GI50 recorded for `CN(C)c1ccc(-c2nc(-c3ccc(/C=C/COc4ccccc4)cc3)[nH]c2-c2ccc(N(C)C)cc2)cc1` was 450

Bench note, ATP-dependent translocase ABCB1 (Homo sapiens, UniProt P08183): entry `COC(=O)CCc1ccc(-c2nc(-c3ccc(N(C)C)cc3)c(-c3ccc(N(C)C)cc3)[nH]2)cc1` , its GI50 = 1000

Record `CCOC/C=C/c1ccc(-c2nc(-c3ccc(N(C)C)cc3)c(-c3ccc(N(C)C)cc3)[nH]2)cc1` has ATP-dependent translocase ABCB1 (Homo sapiens, UniProt P08183) GI50 equal to 80

Considering `CN(C)c1ccc(-c2nc(-c3ccc(C(=O)O)cc3)n(CCc3ccccc3)c2-c2ccc(N(C)C)cc2)cc1` , its GI50 with ATP-dependent translocase ABCB1 (Homo sapiens, UniProt P08183) was recorded as 10000

---

System Under Test: UniProt P08183
Assay Name: Evaluated for inhibition of growth of CEM/VLB1000 cell line using multidrug resistance (MDR) potentiation assay
Experimental Setup: read-out: ED50
GI50 for assorted molecules
Provide only the numeric value, understood in nM.

Past entries and their recorded results:
> print(dat)
                  compound.structure.string  measurement.name  readout.value
1  COCCCc1ccc(-c2nc(-c3ccc(N(C)C)cc3)c(-c3ccc(N(C)C)cc3)[nH]2)cc1              GI50            300
2  CCCCC(=O)OC/C=C/c1ccc(-c2nc(-c3ccc(N(C)C)cc3)c(-c3ccc(N(C)C)cc3)[nH]2)cc1              GI50            480
3  COCCOC/C=C/c1ccc(-c2nc(-c3ccc(N(C)C)cc3)c(-c3ccc(N(C)C)cc3)[nH]2)cc1              GI50             90
4  CN(C)c1ccc(-c2nc(-c3ccc(/C=C/COCc4ccccc4)cc3)[nH]c2-c2ccc(N(C)C)cc2)cc1              GI50            300
5  CN(C)c1ccc(-c2nc(-c3ccc(/C=C/C#N)cc3)[nH]c2-c2ccc(N(C)C)cc2)cc1              GI50            600
6  CN(C)c1ccc(-c2nc(-c3ccc(O)cc3)[nH]c2-c2ccc(N(C)C)cc2)cc1              GI50           5000
7  COCCCCc1ccc(-c2nc(-c3ccc(N(C)C)cc3)c(-c3ccc(N(C)C)cc3)[nH]2)cc1              GI50           1100

Consider the additional molecule presented here.
Reported GI50 ( `CN(C)C/C=C/c1ccc(-c2nc(-c3ccc(N(C)C)cc3)c(-c3ccc(N(C)C)cc3)[nH]2)cc1` ) = 1300

---

System Under Test: ATP-dependent translocase ABCB1 (Homo sapiens, UniProt P08183)
Assay Name: Evaluated for inhibition of growth of CEM/VLB1000 cell line using multidrug resistance (MDR) potentiation assay
Experimental Setup: read-out: ED50
Field: label. Allowed values: y (GI50 < 10 µM) or n (GI50 >= 10 µM).

(Q) For this compound, is GI50 lower than 10 µM? `CN(C)c1ccc(-c2nc(-c3ccc(C(=O)O)cc3)[nH]c2-c2ccc(N(C)C)cc2)cc1`
(A) n

---

System Under Test: ATP-dependent translocase ABCB1 (Homo sapiens, UniProt P08183)
Assay Name: Evaluated for inhibition of growth of CEM/VLB1000 cell line using multidrug resistance (MDR) potentiation assay
Experimental Setup: read-out: ED50
Property: GI50; scope: individual compounds
Your answer is read as nM, so omit the unit and give the number.

Answered examples (3):
> print(dat)
                                   compound                         system.under.test  readout.value
1  COC(=O)c1ccc(-c2nc(-c3ccc(N(C)C)cc3)c(-c3ccc(N(C)C)cc3)[nH]2)cc1  ATP-dependent translocase ABCB1 (Homo sapiens, UniProt P08183)            600
2  CN(C)c1ccc(-c2nc(-c3ccc(O)cc3)n(CCc3ccccc3)c2-c2ccc(N(C)C)cc2)cc1  ATP-dependent translocase ABCB1 (Homo sapiens, UniProt P08183)           1000
3  COC(=O)C1CC1c1ccc(-c2nc(-c3ccc(N(C)C)cc3)c(-c3ccc(N(C)C)cc3)[nH]2)cc1 (centres undefined)  ATP-dependent translocase ABCB1 (Homo sapiens, UniProt P08183)            310

Shifting focus to the compound that follows.
GI50 reported for this compound `CN(C)c1ccc(-c2nc(-c3ccc(/C=C/C(=O)O)cc3)[nH]c2-c2ccc(N(C)C)cc2)cc1` : 10000
